Source: ChEMBL document CHEMBL4002627

- procedure details: Cytotoxicity against human HCT116 cells assessed as growth inhibition at 10 ug/ml after 48 hrs by MTT assay relative to control
- Type: cell-based, HCT-116
- condition info: read-out: GI
Binary classification by inhibition at 48 h, 10 ug/ml, with 10% as an inclusive lower bound for met; all other cases are not met.

> print(dat)
                               line.notation  qualitative.label
 1  Cc1cccc2cc(/C=C3\CN(C)C/C(=C\c4cc5cccc(C)c5nc4Cl)C3=O)c(Cl)nc12            not met
 2  Cc1ccc2nc(Cl)c(/C=C3\CNC/C(=C\c4cc5cc(C)ccc5nc4Cl)C3=O)cc2c1                met
 3  Cc1ccc2nc(Cl)c(/C=C3\CN(C)C/C(=C\c4cc5cc(C)ccc5nc4Cl)C3=O)cc2c1                met
 4  CN1C/C(=C\c2cc3cc(Cl)ccc3nc2Cl)C(=O)/C(=C/c2cc3cc(Cl)ccc3nc2Cl)C1                met
 5  COc1ccc2cc(/C=C3\CN(C)C/C(=C\c4cc5ccc(OC)cc5nc4Cl)C3=O)c(Cl)nc2c1            not met
 6  O=C1/C(=C/c2cc3cc(Cl)ccc3nc2Cl)CNC/C1=C\c1cc2cc(Cl)ccc2nc1Cl            not met
 7  COc1ccc2nc(Cl)c(/C=C3\CN(C)C/C(=C\c4cc5cc(OC)ccc5nc4Cl)C3=O)cc2c1                met
 8  Cc1ccc2cc(/C=C3\CN(C)C/C(=C\c4cc5ccc(C)cc5nc4Cl)C3=O)c(Cl)nc2c1                met
 9  O=C1/C(=C/c2cc3ccccc3nc2Cl)CNC/C1=C\c1cc2ccccc2nc1Cl            not met
10  COc1ccc2cc(/C=C3\CNC/C(=C\c4cc5ccc(OC)cc5nc4Cl)C3=O)c(Cl)nc2c1                met
11  Cc1cccc2cc(/C=C3\CNC/C(=C\c4cc5cccc(C)c5nc4Cl)C3=O)c(Cl)nc12                met
12  O=C1/C(=C/c2cc3cc(F)ccc3nc2Cl)CNC/C1=C\c1cc2cc(F)ccc2nc1Cl                met
13  CN1C/C(=C\c2cc3ccccc3nc2Cl)C(=O)/C(=C/c2cc3ccccc3nc2Cl)C1            not met
14  COc1ccc2nc(Cl)c(/C=C3\CNC/C(=C\c4cc5cc(OC)ccc5nc4Cl)C3=O)cc2c1            not met
15  CN1C/C(=C\c2cc3cc(F)ccc3nc2Cl)C(=O)/C(=C/c2cc3cc(F)ccc3nc2Cl)C1                met
16  Cc1ccc2cc(/C=C3\CNC/C(=C\c4cc5ccc(C)cc5nc4Cl)C3=O)c(Cl)nc2c1                met
